Endpoint: IC50. System: MetAP-2 (Homo sapiens, UniProt P50579). Items follow.
Sequence (P50579 whole entry, species assumed): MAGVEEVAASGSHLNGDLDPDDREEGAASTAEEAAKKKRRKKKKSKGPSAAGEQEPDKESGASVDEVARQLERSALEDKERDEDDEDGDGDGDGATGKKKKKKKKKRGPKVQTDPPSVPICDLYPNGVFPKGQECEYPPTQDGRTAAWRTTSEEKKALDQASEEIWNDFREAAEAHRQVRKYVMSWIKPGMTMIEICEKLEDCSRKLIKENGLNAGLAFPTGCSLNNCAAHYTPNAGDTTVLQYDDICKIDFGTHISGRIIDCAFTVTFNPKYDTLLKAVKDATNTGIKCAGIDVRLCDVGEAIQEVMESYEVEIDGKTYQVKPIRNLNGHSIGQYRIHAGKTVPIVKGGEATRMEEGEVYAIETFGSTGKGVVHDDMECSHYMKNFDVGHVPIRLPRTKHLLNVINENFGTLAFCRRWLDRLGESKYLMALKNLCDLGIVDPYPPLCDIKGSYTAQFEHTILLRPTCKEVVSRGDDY

Readout IC50 for O=C(NCc1cc(F)cc(Cl)c1)[C@@]1(O)CCCN(Cc2ccccc2)C1=O , test system MetAP-2 (Homo sapiens, UniProt P50579), was 10 to 1000 nM

Readout IC50 for Cc1ccc(CNCC2(O)CCN(c3ccccc3)C2=O)cc1 (stereo not drawn) , test system MetAP-2 (Homo sapiens, UniProt P50579), was 10 to 1000 nM

Readout IC50 for O=C(NCc1cc(F)cc(F)c1)C1(O)CCCN(CC2CCC2)C1=O (stereo not drawn) , test system MetAP-2 (Homo sapiens, UniProt P50579), was 1000 to 10000 nM

Readout IC50 for O=C1N(c2ccccc2)CCC1(O)CNCc1cccc(F)c1 (stereo not drawn) , test system MetAP-2 (Homo sapiens, UniProt P50579), was 1000 to 10000 nM

Readout IC50 for CC(=O)Nc1ccc(N2CCC(O)(C(=O)NCCc3cc(F)cc(F)c3)C2=O)cn1 (stereo not drawn) , test system MetAP-2 (Homo sapiens, UniProt P50579), was 10 to 1000 nM

Readout IC50 for O=C1CCc2cc(N3CC[C@@](O)(C(=O)NCCc4cc(F)cc(Cl)c4)C3=O)ccc2N1 , test system MetAP-2 (Homo sapiens, UniProt P50579), was > 10000 nM

Readout IC50 for OC1(CNCc2cc(F)cc(Cl)c2)CCCN(Cc2ccccc2)C1 (stereo not drawn) , test system MetAP-2 (Homo sapiens, UniProt P50579), was > 10000 nM

Readout IC50 for CC(=O)N1CCC2(CC1)CN(c1ccccc1)C(=O)[C@@]2(O)C(=O)NCc1cc(F)cc(Cl)c1 , test system MetAP-2 (Homo sapiens, UniProt P50579), was > 10000 nM

Readout IC50 for NC(=O)c1cccc(N2CCC(O)(C(=O)NCCc3cccc(F)c3)C2=O)c1 (stereo not drawn) , test system MetAP-2 (Homo sapiens, UniProt P50579), was 10 to 1000 nM
